Data origin, for the record: patent US10369149B2

system.tested: Ba/F3 EML4-ALK L1196M (Homo sapiens, UniProt Q9UM73, L1196M, cells depend on it)
Sequence (Q9UM73 whole entry L1196M): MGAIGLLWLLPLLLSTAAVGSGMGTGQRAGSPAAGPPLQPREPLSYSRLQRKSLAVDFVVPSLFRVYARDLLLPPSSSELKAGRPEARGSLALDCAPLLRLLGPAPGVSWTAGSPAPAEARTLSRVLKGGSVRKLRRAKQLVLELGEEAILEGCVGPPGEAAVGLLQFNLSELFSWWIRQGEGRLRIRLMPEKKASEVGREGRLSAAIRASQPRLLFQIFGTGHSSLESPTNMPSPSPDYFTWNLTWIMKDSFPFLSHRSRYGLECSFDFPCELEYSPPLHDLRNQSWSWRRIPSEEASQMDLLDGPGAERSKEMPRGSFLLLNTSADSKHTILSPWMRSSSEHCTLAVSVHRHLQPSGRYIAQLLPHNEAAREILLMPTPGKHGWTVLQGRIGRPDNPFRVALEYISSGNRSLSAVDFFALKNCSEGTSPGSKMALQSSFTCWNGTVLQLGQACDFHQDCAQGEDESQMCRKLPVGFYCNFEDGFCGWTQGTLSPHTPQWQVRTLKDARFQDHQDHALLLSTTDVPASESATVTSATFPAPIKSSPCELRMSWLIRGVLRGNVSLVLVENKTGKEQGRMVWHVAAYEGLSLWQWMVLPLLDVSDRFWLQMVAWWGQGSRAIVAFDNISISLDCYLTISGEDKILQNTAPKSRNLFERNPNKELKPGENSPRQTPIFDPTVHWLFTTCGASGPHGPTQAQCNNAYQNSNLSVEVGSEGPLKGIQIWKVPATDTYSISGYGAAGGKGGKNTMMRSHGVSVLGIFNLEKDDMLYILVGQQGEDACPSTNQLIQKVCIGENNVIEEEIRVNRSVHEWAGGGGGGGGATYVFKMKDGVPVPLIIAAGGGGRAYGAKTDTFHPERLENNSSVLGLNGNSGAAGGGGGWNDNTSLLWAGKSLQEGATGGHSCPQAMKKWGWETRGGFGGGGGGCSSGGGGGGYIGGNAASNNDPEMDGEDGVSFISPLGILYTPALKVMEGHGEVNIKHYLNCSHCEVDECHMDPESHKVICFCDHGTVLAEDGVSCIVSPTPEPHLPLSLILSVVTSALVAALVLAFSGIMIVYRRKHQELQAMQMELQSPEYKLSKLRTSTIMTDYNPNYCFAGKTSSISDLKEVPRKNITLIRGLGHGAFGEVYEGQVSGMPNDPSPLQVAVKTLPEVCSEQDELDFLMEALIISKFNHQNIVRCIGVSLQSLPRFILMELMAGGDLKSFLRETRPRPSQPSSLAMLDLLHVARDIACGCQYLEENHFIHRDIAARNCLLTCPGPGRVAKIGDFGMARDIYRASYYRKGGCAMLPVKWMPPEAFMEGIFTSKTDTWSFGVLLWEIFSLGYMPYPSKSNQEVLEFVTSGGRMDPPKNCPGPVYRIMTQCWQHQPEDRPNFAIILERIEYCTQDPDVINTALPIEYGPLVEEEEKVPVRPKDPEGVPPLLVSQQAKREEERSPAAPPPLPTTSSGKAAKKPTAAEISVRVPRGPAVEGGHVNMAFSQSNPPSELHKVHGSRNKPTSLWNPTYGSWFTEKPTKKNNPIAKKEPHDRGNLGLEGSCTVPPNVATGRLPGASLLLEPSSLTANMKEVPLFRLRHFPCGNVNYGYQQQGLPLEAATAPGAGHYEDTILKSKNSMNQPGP
measurement.notes: ALK inhibitory activity in Ba/F3 EML4-ALK L1196M, SRB staining of live cells
condition.parameters: read-out: Ba/F3 EML4-ALK L1196M, three days
Where a name gives a salt, the structure may show the parent alone.
attribute.measured: GI50

Entry COc1cc2c(cc1Nc1ncc(Cl)c(Nc3ccccc3S(=O)(=O)C(C)C)n1)CCC(N(C)C)C2(C)C (stereo not drawn) has what GI50?
10 to 100 nM

Param item = COc1cc2c(cc1Nc1ncc(Cl)c(Nc3ccccc3S(=O)(=O)C(C)C)n1)CC/C(=N\NC(=O)OC(C)(C)C)C2(C)C ; retrieve measured GI50.
> 100 nM

Data request, read-out GI50, for COc1cc2c(cc1Nc1ncc(Cl)c(Nc3ccccc3S(=O)(=O)C(C)C)n1)C(C)(C)/C(=N/N1CCN(C)CC1)CC2
> 100 nM

What value of measured GI50 is listed for COc1cc2c(cc1Nc1ncc(Cl)c(Nc3ccccc3S(=O)(=O)C(C)C)n1)CC/C(=N\NC(=N)N)C2(C)C ?
> 100 nM

# GI50 lookup, item COc1cc2c(cc1Nc1ncc(Cl)c(Nc3ccccc3S(=O)(=O)C(C)C)n1)C(=O)C(N1CCOCC1)CC2 (stereo not drawn)
> 100 nM

Request the reported GI50 associated with COc1cc2c(cc1Nc1ncc(Cl)c(Nc3ccccc3S(=O)(=O)C(C)C)n1)C(C)(C)/C(=N/N1CCOCC1)CC2
> 100 nM

Quick one: GI50 of COc1cc2c(cc1Nc1ncc(Cl)c(Nc3ccccc3S(=O)(=O)C(C)C)n1)CC/C(=N\O)C2(C)C ?
> 100 nM

GET /values?readout=GI50&item= COc1cc2c(cc1Nc1ncc(Cl)c(Nc3ccccc3S(=O)(=O)C(C)C)n1)C(C)(C)/C(=N/NC(=N)N)CC2
> 100 nM

// GI50 lookup, key: COc1cc2c(cc1Nc1ncc(Cl)c(Nc3ccccc3S(=O)(=O)C(C)C)n1)CCC(NC=N)C2(C)C (stereo not drawn)
> 100 nM

Which GI50 is listed for COc1cc2c(cc1Nc1ncc(Cl)c(Nc3ccccc3S(=O)(=O)C(C)C)n1)CCC(NC(=O)C(F)(F)F)C2(C)C (stereo not drawn) ?
> 100 nM

I have this compound here, COc1cc2c(cc1Nc1ncc(Cl)c(Nc3ccccc3S(=O)(=O)C(C)C)n1)CC/C(=N\N1CCOCC1)C2(C)C , and I need its recorded GI50.
> 100 nM

Looking for the measured GI50 of COc1cc2c(cc1Nc1ncc(Cl)c(Nc3ccccc3S(=O)(=O)C(C)C)n1)C(C)(C)C(O)CC2 (stereo not drawn) , can you help?
> 100 nM

State the recorded GI50 for this entry: COc1cc2c(cc1Nc1ncc(Cl)c(Nc3ccccc3S(=O)(=O)C(C)C)n1)CC/C(=N\N1CCN(C)CC1)C2(C)C
10 to 100 nM

# get_value(readout='GI50', item= COc1cc2c(cc1Nc1ncc(Cl)c(Nc3ccccc3S(=O)(=O)C(C)C)n1)C(C)(C)C(NC(=O)C(F)(F)F)CC2 (stereo not drawn) )
> 100 nM

Can you share its GI50? I mean this compound: COc1cc2c(cc1Nc1ncc(Cl)c(Nc3ccccc3S(=O)(=O)C(C)C)n1)CCC(N)C2(C)C (stereo not drawn)
10 to 100 nM

Need GI50, item COc1cc2c(cc1Nc1ncc(Cl)c(Nc3ccccc3S(=O)(=O)C(C)C)n1)CCC(NC(=N)N)C2(C)C (stereo not drawn)
> 100 nM

So what does the record say about GI50 for COc1cc2c(cc1Nc1ncc(Cl)c(Nc3ccccc3S(=O)(=O)C(C)C)n1)CCC(NC(=O)CO)C2(C)C (stereo not drawn) ?
10 to 100 nM

Param item = COc1cc2c(cc1Nc1ncc(Cl)c(Nc3ccccc3S(=O)(=O)C(C)C)n1)C(C)(C)/C(=N/NC(N)=O)CC2 ; retrieve measured GI50.
> 100 nM

Fill blank: measured GI50 of the compound COc1cc2c(cc1Nc1ncc(Cl)c(Nc3ccccc3S(=O)(=O)C(C)C)n1)C(C)(C)C(N)CC2 (stereo not drawn) is ____.
> 100 nM

GI50 for COc1cc2c(cc1Nc1ncc(Cl)c(Nc3ccccc3S(=O)(=O)C(C)C)n1)CC/C(=N\NC(N)=O)C2(C)C ?
> 100 nM

Returns the measured GI50 for the input compound. Input: COc1cc2c(cc1Nc1ncc(Cl)c(Nc3ccccc3S(=O)(=O)C(C)C)n1)CCC(NC(=O)CN(C)C)C2(C)C (stereo not drawn)
10 to 100 nM

Data request, read-out GI50, for COc1cc2c(cc1Nc1ncc(Cl)c(Nc3ccccc3S(=O)(=O)C(C)C)n1)CCC(N1CCOCC1)C2 (stereo not drawn)
10 to 100 nM

I am curious: what GI50 value has been reported for COc1cc2c(cc1Nc1ncc(Cl)c(Nc3ccccc3S(=O)(=O)C(C)C)n1)CC/C(=N\NC(C)=O)C2(C)C ?
> 100 nM

Any idea what its GI50 is? The compound is COc1cc2c(cc1Nc1ncc(Cl)c(Nc3ccccc3S(=O)(=O)C(C)C)n1)CC/C(=N\N)C2(C)C [Example 13, hydrochloride]
> 100 nM

====

system.tested: ALK enzyme (Homo sapiens)
Sequence (Q9UM73 19-1620): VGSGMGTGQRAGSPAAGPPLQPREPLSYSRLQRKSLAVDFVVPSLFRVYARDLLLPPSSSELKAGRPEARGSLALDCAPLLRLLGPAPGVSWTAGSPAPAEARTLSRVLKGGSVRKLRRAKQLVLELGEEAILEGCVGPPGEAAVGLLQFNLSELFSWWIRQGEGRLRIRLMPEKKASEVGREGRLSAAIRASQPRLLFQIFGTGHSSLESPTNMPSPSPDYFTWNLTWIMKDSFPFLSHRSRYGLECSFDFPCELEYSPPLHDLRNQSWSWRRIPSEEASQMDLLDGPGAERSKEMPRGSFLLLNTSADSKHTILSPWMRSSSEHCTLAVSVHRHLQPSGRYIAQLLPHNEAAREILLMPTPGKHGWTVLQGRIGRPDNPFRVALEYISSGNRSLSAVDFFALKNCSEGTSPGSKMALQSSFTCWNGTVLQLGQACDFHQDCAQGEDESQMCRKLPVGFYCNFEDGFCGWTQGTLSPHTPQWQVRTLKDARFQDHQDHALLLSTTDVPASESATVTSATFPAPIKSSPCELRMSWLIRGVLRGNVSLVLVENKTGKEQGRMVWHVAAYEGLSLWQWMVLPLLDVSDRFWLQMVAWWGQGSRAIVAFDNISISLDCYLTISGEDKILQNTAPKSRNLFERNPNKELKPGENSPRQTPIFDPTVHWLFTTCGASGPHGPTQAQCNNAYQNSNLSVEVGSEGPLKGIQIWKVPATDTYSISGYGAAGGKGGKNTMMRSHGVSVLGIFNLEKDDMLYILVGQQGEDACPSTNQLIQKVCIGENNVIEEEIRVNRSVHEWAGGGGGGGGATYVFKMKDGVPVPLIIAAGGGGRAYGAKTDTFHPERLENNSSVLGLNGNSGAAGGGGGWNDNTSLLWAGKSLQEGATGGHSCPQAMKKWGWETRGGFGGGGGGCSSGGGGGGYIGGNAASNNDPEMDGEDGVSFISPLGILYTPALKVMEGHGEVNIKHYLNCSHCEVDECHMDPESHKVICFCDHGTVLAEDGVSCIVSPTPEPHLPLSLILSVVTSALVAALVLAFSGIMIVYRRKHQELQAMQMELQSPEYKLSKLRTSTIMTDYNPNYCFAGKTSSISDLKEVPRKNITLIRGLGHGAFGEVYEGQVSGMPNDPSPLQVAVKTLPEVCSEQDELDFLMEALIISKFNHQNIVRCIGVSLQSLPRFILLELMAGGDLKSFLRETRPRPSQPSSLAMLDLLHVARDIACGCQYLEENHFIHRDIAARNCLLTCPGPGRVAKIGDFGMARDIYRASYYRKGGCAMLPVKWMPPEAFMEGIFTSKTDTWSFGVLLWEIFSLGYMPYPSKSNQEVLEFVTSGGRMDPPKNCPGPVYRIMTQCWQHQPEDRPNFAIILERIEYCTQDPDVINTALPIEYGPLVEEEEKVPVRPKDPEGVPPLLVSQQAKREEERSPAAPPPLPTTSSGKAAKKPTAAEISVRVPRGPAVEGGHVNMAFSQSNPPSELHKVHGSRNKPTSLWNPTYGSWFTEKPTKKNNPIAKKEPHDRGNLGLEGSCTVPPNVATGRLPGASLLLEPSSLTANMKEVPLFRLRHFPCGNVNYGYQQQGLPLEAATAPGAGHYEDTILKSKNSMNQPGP
measurement.notes: Anaplastic lymphoma kinase (ALK) inhibitory activity, HTRF kinase assay
Assay type: biochemical
condition.parameters: HTRF, read-out: ALK
Exercise: for every item that follows, state its recorded IC50.

Tell me the measured IC50 of COc1cc2c(cc1Nc1ncc(Cl)c(Nc3ccccc3S(=O)(=O)C(C)C)n1)CC/C(=N\NC(=N)N)C2(C)C , please.
10 to 100 nM

Which IC50 is listed for COc1cc2c(cc1Nc1ncc(Cl)c(Nc3ccccc3S(=O)(=O)C(C)C)n1)C(C)(C)C(NC(=O)C(F)(F)F)CC2 (centres unmarked) ?
> 100 nM

What does the record list as IC50 for COc1cc2c(cc1Nc1ncc(Cl)c(Nc3ccccc3S(=O)(=O)C(C)C)n1)CCC(N1CCOCC1)C2 (centres unmarked) ?
< 10 nM

Reported IC50, compound COc1cc2c(cc1Nc1ncc(Cl)c(Nc3ccccc3S(=O)(=O)C(C)C)n1)C(C)(C)/C(=N/NC(=N)N)CC2 : ____
10 to 100 nM

Sample COc1cc2c(cc1Nc1ncc(Cl)c(Nc3ccccc3S(=O)(=O)C(C)C)n1)C(C)(C)/C(=N/O)CC2 — what was its IC50?
> 100 nM

Entry COc1cc2c(cc1Nc1ncc(Cl)c(Nc3ccccc3S(=O)(=O)C(C)C)n1)CC/C(=N\N1CCN(C)CC1)C2(C)C has what IC50?
< 10 nM

So what's the measured IC50 for this one? COc1cc2c(cc1Nc1ncc(Cl)c(Nc3ccccc3S(=O)(=O)C(C)C)n1)CC/C(=N\N1CCOCC1)C2(C)C
10 to 100 nM

Looking for the measured IC50 of COc1cc2c(cc1Nc1ncc(Cl)c(Nc3ccccc3S(=O)(=O)C(C)C)n1)C(C)(C)/C(=N/NC(C)=O)CC2 , can you help?
10 to 100 nM

Query: IC50; subject: COc1cc2c(cc1Nc1ncc(Cl)c(Nc3ccccc3S(=O)(=O)C(C)C)n1)C(=O)C(N1CCOCC1)CC2 (centres unmarked)
10 to 100 nM

Find the recorded IC50 belonging to COc1cc2c(cc1Nc1ncc(Cl)c(Nc3ccccc3S(=O)(=O)C(C)C)n1)CCC(N)C2(C)C (centres unmarked) and report it.
< 10 nM

Which IC50 value belongs to COc1cc2c(cc1Nc1ncc(Cl)c(Nc3ccccc3S(=O)(=O)C(C)C)n1)CCC(NC(=O)C(F)(F)F)C2(C)C (centres unmarked) ?
> 100 nM
